experimental.details: activity coefficient (dimensionless); of the first substance listed, at infinite dilution; xn = mol fraction of the nth substance listed
run.conditions: 323.15 K; 101.33 kPa; Liquid; Chromatography; x1 = 0
Task for the reader: assign each of the following compounds its reported activity coefficient.
Lab note: record just the number, no unit beside it.

Give the measured activity coefficient of CCCCCCCCCCCC [dodecane] + CO[PH](=O)[O-].Cn1cc[n+](C)c1 .
1920

Give the measured activity coefficient of ClCCl [dichloromethane] + CO[PH](=O)[O-].Cn1cc[n+](C)c1 .
0.65

Give the measured activity coefficient of c1ccccc1 [benzene] + CO[PH](=O)[O-].Cn1cc[n+](C)c1 .
5.58

Give the measured activity coefficient of CCCCCCCCCCC [undecane] + CO[PH](=O)[O-].Cn1cc[n+](C)c1 .
1470

Give the measured activity coefficient of C#CCCCCC [1-heptyne] + CO[PH](=O)[O-].Cn1cc[n+](C)c1 .
23.5

Give the measured activity coefficient of CCC[N+](=O)[O-] [1-nitropropane] + CO[PH](=O)[O-].Cn1cc[n+](C)c1 .
3.35

Give the measured activity coefficient of Cc1ccc(C)cc1 [1,4-dimethylbenzene] + CO[PH](=O)[O-].Cn1cc[n+](C)c1 .
23.4

Give the measured activity coefficient of CCCCCCCCC [nonane] + CO[PH](=O)[O-].Cn1cc[n+](C)c1 .
1050

Give the measured activity coefficient of CCN(CC)CC [triethylamine] + CO[PH](=O)[O-].Cn1cc[n+](C)c1 .
12.7

Give the measured activity coefficient of CC#N [acetonitrile] + CO[PH](=O)[O-].Cn1cc[n+](C)c1 .
1.11

Give the measured activity coefficient of Cc1cccc(C)c1 [1,3-dimethylbenzene] + CO[PH](=O)[O-].Cn1cc[n+](C)c1 .
24.4

Give the measured activity coefficient of c1ccsc1 [thiophene] + CO[PH](=O)[O-].Cn1cc[n+](C)c1 .
2.54

Give the measured activity coefficient of CCc1ccccc1 [ethylbenzene] + CO[PH](=O)[O-].Cn1cc[n+](C)c1 .
22.1

Give the measured activity coefficient of C1COCCO1 [1,4-dioxane] + CO[PH](=O)[O-].Cn1cc[n+](C)c1 .
3.72

Give the measured activity coefficient of c1ccncc1 [pyridine] + CO[PH](=O)[O-].Cn1cc[n+](C)c1 .
2.16

Give the measured activity coefficient of CCCCCCCCCC [decane] + CO[PH](=O)[O-].Cn1cc[n+](C)c1 .
1210

Give the measured activity coefficient of CCCC(C)=O [pentan-2-one] + CO[PH](=O)[O-].Cn1cc[n+](C)c1 .
10.5

Give the measured activity coefficient of CCCCCCCCCCCCC [tridecane] + CO[PH](=O)[O-].Cn1cc[n+](C)c1 .
2220

Give the measured activity coefficient of Cc1ccccc1 [toluene] + CO[PH](=O)[O-].Cn1cc[n+](C)c1 .
11.4

* * *

experimental.details: activity coefficient (dimensionless); of the first substance listed, at infinite dilution; xn = mol fraction of the nth substance listed
run.conditions: 323.15 K; 101.33 kPa; Liquid; Chromatography; x1 = 0
recorded.endpoint: activity coefficient
Lab note: record just the number, no unit beside it.

Give the measured activity coefficient of C[N+](=O)[O-] [nitromethane] + CO[PH](=O)[O-].Cn1cc[n+](C)c1 .
0.81

Give the measured activity coefficient of ClC(Cl)Cl [trichloromethane] + CO[PH](=O)[O-].Cn1cc[n+](C)c1 .
0.43

Give the measured activity coefficient of CCC(C)=O [butanone] + CO[PH](=O)[O-].Cn1cc[n+](C)c1 .
5.16

Give the measured activity coefficient of ClC(Cl)(Cl)Cl [tetrachloromethane] + CO[PH](=O)[O-].Cn1cc[n+](C)c1 .
6.83

Give the measured activity coefficient of CCCCCCCCCCCCCC [tetradecane] + CO[PH](=O)[O-].Cn1cc[n+](C)c1 .
3220

Give the measured activity coefficient of Cc1ccccc1C [1,2-dimethylbenzene] + CO[PH](=O)[O-].Cn1cc[n+](C)c1 .
19.1

Give the measured activity coefficient of CCC(=O)CC [pentan-3-one] + CO[PH](=O)[O-].Cn1cc[n+](C)c1 .
10.1

Give the measured activity coefficient of C#CCCCC [1-hexyne] + CO[PH](=O)[O-].Cn1cc[n+](C)c1 .
13
